Biological target: T1, Activin B (UniProt P09529 293-407)
T1 sequence (looked up): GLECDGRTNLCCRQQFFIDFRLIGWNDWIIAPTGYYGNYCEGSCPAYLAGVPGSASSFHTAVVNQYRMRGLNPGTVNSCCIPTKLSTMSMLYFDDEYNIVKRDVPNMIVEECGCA
Assay: SPR (Biacore 8K), Fc protein captured on anti-human IgG, ligand injected
Kd for assorted binders
# value in nM; strip the unit string

Known results for binders:
Kd lookup needed for ActRIIA-A5 (SEQ ID NO: 107) chimera-Fc protein (Fc fusion, Tested as chimera-Fc protein; not shown: linker (if any) and Fc domain) GAILGRSETQECLFFNANWEKDRTNQTGVEPCYGDKDKRRHCFATWKNISGSIEIVKQGCWLDDFNCYDRQECVEKKDSPEVYFCCCEGNMCNEKFSYFPEMEVTQPTS , thanks. 0.0174

Kd lookup needed for ActRIIB-B5 (SEQ ID NO: 114) chimera-Fc protein (Fc fusion, Tested as chimera-Fc protein; not shown: linker (if any) and Fc domain) GRGEAETRECIYYNANWELERTNQSGLERCEGEQDKRLHCYASWRNSSGTIELVKKGCWLDDFNCYDRQECVEKEENPQVYFCCCEGNFCNERFTHLPEAGGPEVTYEPPPTAPT , thanks. 0.0158

---
Kd lookup needed for ActRIIB-B2 (SEQ ID NO: 111) chimera-Fc protein (Fc fusion, Tested as chimera-Fc protein; not shown: linker (if any) and Fc domain) GRGEAETRECIYYNANWELERTNQTGVEPCEGEQDKRLHCYASWRNSSGTIELVKKGCWLDDFNCYDRQECVATEENPQVYFCCCEGNFCNERFTHLPEAGGPEVTYEPPPTAPT , thanks. 0.0116
